Please provide measured Kd for the entries that follow.
Target: T1, EsCas13d, nuclease-dead (Eubacterium siraeum, UniProt B0MS50, R295A;H300A;R849A;H854A)
T1 sequence: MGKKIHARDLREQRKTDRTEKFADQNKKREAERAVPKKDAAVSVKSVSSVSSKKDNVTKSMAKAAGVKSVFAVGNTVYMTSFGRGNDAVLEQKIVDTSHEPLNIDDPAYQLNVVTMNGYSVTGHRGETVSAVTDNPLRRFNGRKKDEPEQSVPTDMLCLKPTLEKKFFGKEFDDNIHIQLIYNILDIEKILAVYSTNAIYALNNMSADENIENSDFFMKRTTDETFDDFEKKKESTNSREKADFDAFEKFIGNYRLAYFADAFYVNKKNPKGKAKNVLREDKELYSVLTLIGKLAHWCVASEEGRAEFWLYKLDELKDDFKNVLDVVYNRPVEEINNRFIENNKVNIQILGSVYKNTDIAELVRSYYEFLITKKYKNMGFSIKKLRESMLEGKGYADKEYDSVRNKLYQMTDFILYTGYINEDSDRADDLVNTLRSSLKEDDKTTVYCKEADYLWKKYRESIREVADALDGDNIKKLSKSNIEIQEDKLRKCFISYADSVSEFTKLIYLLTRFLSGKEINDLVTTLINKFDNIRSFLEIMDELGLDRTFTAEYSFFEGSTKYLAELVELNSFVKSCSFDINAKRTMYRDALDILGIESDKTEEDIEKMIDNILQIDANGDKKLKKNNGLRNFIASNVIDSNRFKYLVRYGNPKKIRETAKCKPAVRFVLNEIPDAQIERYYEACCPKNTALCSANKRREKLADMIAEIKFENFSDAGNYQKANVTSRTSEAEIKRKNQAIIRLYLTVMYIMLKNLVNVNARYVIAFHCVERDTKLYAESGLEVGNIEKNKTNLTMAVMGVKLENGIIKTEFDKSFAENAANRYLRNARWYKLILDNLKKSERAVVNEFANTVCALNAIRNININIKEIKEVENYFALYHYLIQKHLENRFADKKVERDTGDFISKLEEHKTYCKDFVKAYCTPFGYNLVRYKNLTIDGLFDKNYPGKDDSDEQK
Assay: crRNA (strand 1, pre-loaded); Mg2+; 40 mM Tris-HCl pH 7.5, 150 mM NaCl, 6 mM MgCl2, 1 mM DTT, 0.1% Tween-20, 0.2 mg/ml BSA; 25 C; 10 min per concentration, then washed
Conditions: tags: His6-TwinStrep-SUMO cleaved; N-terminal SNAP kept (SNAP-Surface 488); label: 3' end held by stalled T7 RNA polymerase
// note: answer is a bare numeric in nM

Incoming: Recorded Kd for target 1 insG 3' of 22,insU 3' of 2 (mixed) RNA 1: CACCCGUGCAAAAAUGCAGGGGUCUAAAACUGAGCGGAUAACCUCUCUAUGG RNA 2: GGGAAUGGAUCCACAUCUACGAAUUCGUACGCAUAGAGAGGUUAUCCGCUCUACCGAGAUCGGAAGAGCACACGU , please?
Outgoing: 29.7

Incoming: Item: target 2 MT 5'PFS GUU 3'PFS AUG (mixed) RNA 1: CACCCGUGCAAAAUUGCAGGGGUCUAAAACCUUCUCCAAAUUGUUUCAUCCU RNA 2: GGGAAUGGAUCCACAUCUACGAAUUCGUUAGGAUGAAACAAUUUGGAGAAGAUGAGAUCGGAAGAGCACACGU
Outgoing: 19.6

Incoming: Thanks! And target 1 MT 5'PFS GCG 3'PFS UUG (mixed) RNA 1: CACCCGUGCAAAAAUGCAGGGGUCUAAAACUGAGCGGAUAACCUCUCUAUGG RNA 2: GGGAAUGGAUCCACAUCUACGAAUUCGCGCCAUAGAGAGGUUAUCCGCUCAUUGAGAUCGGAAGAGCACACGU ?
Outgoing: 5.38

Incoming: Item: target 1 MT 5'PFS UAA 3'PFS AGA (mixed) RNA 1: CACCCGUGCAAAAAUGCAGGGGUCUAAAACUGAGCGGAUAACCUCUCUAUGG RNA 2: GGGAAUGGAUCCACAUCUACGAAUUCUAACCAUAGAGAGGUUAUCCGCUCAAGAAGAUCGGAAGAGCACACGU
Outgoing: 37
